test: folding enthalpy; higher = less favourable; fluorescence melt of hairpins on a sequencing array, two-state fit
condition-parameters: sodium 0.088 M
Returns one of 1 or 0; 1 when folding enthalpy is >= -30 kcal/mol.

| residues | category |
| --- | --- |
| GGGCTCGGAAACAAGCCC (((((.(....).))))) | 1 |
| GCTTGTTCGAAAGAAAGC (((..(((....)))))) | 1 |
| GGCAGTGCGAAAGCAGCC (((..(((....)))))) | 1 |
| GACCTGCGAAAGCACGTC (((.(((....))).))) | 1 |
| GTTACAGGAAACTGTAGC (.(((((....))))).) | 1 |
| GATCCTCTAGAGGATC ((((((....)))))) | 0 |
| GATCAACATTTTGATC ((((((....)))))) | 0 |
